- tested on: human mAChR M1 (Homo sapiens, UniProt P11229)
- Construct: host or cells: CHO-K1 (ATCC), stably transfected using Lipofectamine 2000
- Sequence (P11229 whole entry): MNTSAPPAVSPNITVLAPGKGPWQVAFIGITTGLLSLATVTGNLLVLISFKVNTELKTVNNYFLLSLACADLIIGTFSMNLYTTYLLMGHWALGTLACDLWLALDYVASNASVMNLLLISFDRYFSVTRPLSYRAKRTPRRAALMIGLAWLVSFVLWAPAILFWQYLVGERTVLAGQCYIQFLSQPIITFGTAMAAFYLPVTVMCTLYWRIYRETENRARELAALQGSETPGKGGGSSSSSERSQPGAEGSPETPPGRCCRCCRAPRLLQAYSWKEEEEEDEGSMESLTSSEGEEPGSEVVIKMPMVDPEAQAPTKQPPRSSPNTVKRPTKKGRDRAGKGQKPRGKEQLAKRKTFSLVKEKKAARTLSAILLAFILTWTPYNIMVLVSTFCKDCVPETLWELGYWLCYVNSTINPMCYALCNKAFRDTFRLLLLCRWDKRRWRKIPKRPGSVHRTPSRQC
- assay text: mAChR M1 cell-based functional assay (calcium mobilization, Fluo-4, FDSS)
- conditions used: CHO-K1 cells stably expressing hM1; calcium flux; PAM mode with EC20 acetylcholine
endpoint label: Emax (%)

1: Cn1cc(-c2cc(F)c(CN3Cc4ccn(CC5CCCO5)c4C3=O)c(F)c2)cn1 (centres unmarked)
2: Cc1n[nH]c2ccc(-c3cc(F)c(CN4Cc5sccc5C4=O)c(F)c3)cc12
3: Cn1cc2cc(-c3cc(F)c(CN4Cc5cnn(CC6CCCO6)c5C4=O)c(F)c3)ccc2n1 (centres unmarked)
Q: Ascending by Emax, please. Give the labels in the order requested.
A: 1, 2, 3

1: O=C1c2ccsc2CN1Cc1ccc(-c2ccc3nccn3c2)cc1F
2: Cn1cc(-c2ccc(CN3Cc4sccc4C3=O)cc2)nn1
3: Cc1nn(C)cc1-c1cc(F)c(CN2Cc3cnn(CC4CCCO4)c3C2=O)c(F)c1 (centres unmarked)
Q: Reorder the items by Emax, least to greatest. Give the labels in the order requested.
A: 2, 1, 3
(2: 33%, 1: 50%, 3: 77%)

a: O=C1c2c(ccn2CC2CCCO2)CN1Cc1c(F)cc(-c2ccc3nccn3c2)cc1F (centres unmarked)
b: Cn1cc(-c2ccc(CN3Cc4sccc4C3=O)cc2)cn1
c: Cn1cc(-c2cc(F)c(CN3Cc4cnn(CC5CCCO5)c4C3=O)c(F)c2)cn1 (centres unmarked)
Q: Output the entries ranked by Emax from maximum down to minimum. Give the labels in the order requested.
A: c, b, a
(c: 73%, b: 50%, a: 33%)

---

- tested on: human mAChR M1 (Homo sapiens, UniProt P11229)
- assay text: mAChR M1 cell-based functional assay (calcium mobilization, Fluo-4, FDSS)
- conditions used: CHO-K1 cells stably expressing hM1; calcium flux; concentration-dependent increase in the EC20 acetylcholine response
endpoint label: EC50 (nM)

[[record]]
compound = "Cn1cc2cc(-c3cc(F)c(CN4Cc5occc5C4=O)c(F)c3)ccc2n1"
tested_on = "human mAChR M1 (Homo sapiens, UniProt P11229)"
reported_measurement = 990

[[record]]
compound = "Cn1cnc2ccc(-c3cc(F)c(CN4Cc5sccc5C4=O)c(F)c3)cc21"
tested_on = "human mAChR M1 (Homo sapiens, UniProt P11229)"
reported_measurement = 2870

[[record]]
compound = "Cn1cc2c(-c3cc(F)c(CN4Cc5cnn(CCN6CCCC6)c5C4=O)c(F)c3)cccc2n1"
tested_on = "human mAChR M1 (Homo sapiens, UniProt P11229)"
reported_measurement = 730

[[record]]
compound = "Cn1cc2c(-c3cc(F)c(CN4Cc5cn(CCO)nc5C4=O)c(F)c3)cccc2n1"
tested_on = "human mAChR M1 (Homo sapiens, UniProt P11229)"
reported_measurement = 9150

[[record]]
compound = "O=C1c2c(ccn2CC2CCCO2)CN1Cc1c(F)cc(-c2ccc3nccn3c2)cc1F (stereo not shown)"
tested_on = "human mAChR M1 (Homo sapiens, UniProt P11229)"
reported_measurement = 2150


1: Cn1cc2cc(-c3cc(F)c(CN4Cc5sccc5C4=O)c(F)c3)ccc2n1
2: Cn1cc2cc(-c3cc(F)c(CN4Cc5ccn(CC6CCCO6)c5C4=O)c(F)c3)ccc2n1 (stereo not shown)
3: Cn1cc2c(-c3cc(F)c(CN4Cc5ccn(CCCO)c5C4=O)c(F)c3)cccc2n1
4: Cn1cc2cc(-c3cc(F)c(CN4Cc5scc(Br)c5C4=O)c(F)c3)ccc2n1
Q: Reorder the items by EC50, least to greatest. Give the labels in the order requested.
A: 1, 4, 2, 3

---

- tested on: human mAChR M1 (Homo sapiens)
- Construct: host or cells: CHO-K1 (ATCC), stably transfected using Lipofectamine 2000
- assay text: mAChR M1 cell-based functional assay (calcium mobilization, Fluo-4, FDSS)
- conditions used: CHO-K1 cells stably expressing hM1; calcium flux; PAM mode with EC20 acetylcholine
endpoint label: Emax (%)

[[record]]
compound = "Cn1cc2c(-c3cc(F)c(CN4Cc5cn(Cc6ccccn6)nc5C4=O)c(F)c3)cccc2n1"
measure_unit = "%"
reported_measurement = 46

[[record]]
compound = "Cn1cc2cccc(-c3cc(F)c(CN4Cc5cnn(CC6CCCO6)c5C4=O)c(F)c3)c2n1 (centres unmarked)"
measure_unit = "%"
reported_measurement = 66

[[record]]
compound = "Cn1cc2cccc(-c3cc(F)c(CN4Cc5occc5C4=O)c(F)c3)c2n1"
measure_unit = "%"
reported_measurement = 50


a: Cn1cc2cc(-c3cc(F)c(CN4Cc5ccn(CC6CCCO6)c5C4=O)c(F)c3)ccc2n1 (centres unmarked)
b: O=C1c2scnc2CN1Cc1c(F)cc(-c2ccc3nccn3c2)cc1F
c: Cn1cc2c(-c3cc(F)c(CN4Cc5sccc5C4=O)c(F)c3)cccc2n1
Q: Reorder the items by Emax, least to greatest. Give the labels in the order requested.
A: a, b, c
(a: 33%, b: 55%, c: 84%)

---

- tested on: human mAChR M1 (Homo sapiens, UniProt P11229)
- Construct: host or cells: CHO-K1 (ATCC), stably transfected using Lipofectamine 2000
- assay text: mAChR M1 cell-based functional assay (calcium mobilization, Fluo-4, FDSS)
- conditions used: CHO-K1 cells stably expressing hM1; calcium flux; concentration-dependent increase in the EC20 acetylcholine response
- Protocol: Chinese hamster ovary (CHO-K1) cells stably expressing rat (r)M1 were purchased from the American Type Culture Collection and cultured according to their indicated protocol. […] Calcium flux was measured using the Functional Drug Screening System (FDSS) 6000 (Hamamatsu Corporation, Tokyo, Japan) as an increase in the fluorescent static ratio. […] Agonist activity was analyzed as a concentration-dependent increase in calcium mobilization upon compound addition. […]
endpoint label: EC50 (µM)

These recorded examples may help you get a feel for the data.
[[record]]
compound = "Cn1cc2c(-c3cc(F)c(CN4Cc5cn(CCN6CCCC6)nc5C4=O)c(F)c3)cccc2n1 [Compound 21]"
measure_unit = "µM"
reported_measurement = 5.18

[[record]]
compound = "Cn1cc2c(-c3cc(F)c(CN4Cc5cn(CC6CCCO6)nc5C4=O)c(F)c3)cccc2n1 (stereo not shown) [Compound 17]"
measure_unit = "µM"
reported_measurement = 3.41


I: O=C1c2ccsc2CN1Cc1ccc(-c2ccc3nccn3c2)cc1F [Compound 45]
II: Cn1cc2c(-c3cc(F)c(CN4Cc5ccn(CCN6CCCC6)c5C4=O)c(F)c3)cccc2n1 [Compound 11]
Q: Returns: the label, I or II , whose recorded EC50 is the lower number. Reply briefly: the label of your chosen item.
A: II
(II: 2.92 µM, I: 4.46 µM)
